Target: T1, CCR7 N-terminus peptide 1-30 (Homo sapiens, UniProt P32248)
T1 chain: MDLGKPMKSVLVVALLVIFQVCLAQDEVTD
Assay: NMR chemical shift titration
experimental.endpoint: pKd
Please express pKd as -log10 of the molar concentration.

**Query** Answer with the recorded pKd of CCL19 (protein) GTNDAEDCCLSVTQKPIPGYIVRNFHYLLIKDGCRVPAVVFTTLRGRQLCAPPDQPWVERIIQRLQRTSAKMKRRSS only.
**Result** 4.28
